Source: paper PMC9482650

Target: T1, NHERF3_4, Q5T2W1
T1 sequence (Q5T2W1 373-468, limits assumed, looked up): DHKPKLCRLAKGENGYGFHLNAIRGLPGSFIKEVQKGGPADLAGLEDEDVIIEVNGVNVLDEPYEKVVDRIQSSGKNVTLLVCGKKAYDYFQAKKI
Experiment: holdup assay
Set-up: key: below the threshold = too weak to quantify, mostly under pKd 3.1 to 4
Conditions: plain residues with an end cap or a label only (N-terminal biotin on a linker: ado-ado)
Test Readout: pKd

Binder	Result
RRLPGKETMA [GRIK2, Q13002]	below the threshold
YYKRPVQEWV [MMP24, Q9Y5R2]	below the threshold
QPCFNKLFPL [LPXN, O60711]	3.73
QGLAERISVL [PRKD2, Q9BZL6]	3.73
HSGYRLNDYV [CLDN14, O95500]	below the threshold
QSPANIYYKV [EFNB1, P52799]	below the threshold

Entry VKPQVSESKL [ACOT8, O14734] : reported pKd = ? below the threshold

Entry PLSPEQPTKL [TRIM50, Q86XT4] : reported pKd = ? 3.7
